Reported values of MHC10 for individual entries
tested on: Erythrocyte; experiment: Hemolytic activity in BALB/C mouse erythrocytes incubated for 1 hr by absorbance method; assay type: ADME, cell-based
Where a SMILES comes first, the peptide text is derived from it.
Provide only the numeric value, understood in µM.

{"columns": ["Compound", "Tested On", "Observable", "Reported Value"],
 "data": [
  ["CC(C)C[C@H](NC(=O)[C@H](Cc1c[nH]c2ccccc12)NC(=O)CN)C(=O)N[C@@H](CCCCN)C(=O)N[C@@H](CCCNC(=N)N)C(=O)N[C@@H](Cc1c[nH]c2ccccc12)C(=O)N[C@@H](CCCCN)C(=O)N[C@H](C(=O)N[C@@H](CC(C)C)C(=O)N[C@@H](Cc1c[nH]c2ccccc12)C(N)=O)[C@@H](C)O (H-GWLKRWKTLW-NH2)", "Erythrocyte", "MHC10", 320]
]}

Lab note: next compound to report on.
Could you share which MHC10 value was measured for NCCCC[C@H](NC(=O)[C@H](CCCCN)NC(=O)[C@H](Cc1c[nH]c2ccccc12)NC(=O)[C@H](CCCCN)NC(=O)[C@H](CCCCN)NC(=O)[C@H](Cc1c[nH]c2ccccc12)NC(=O)[C@H](Cc1c[nH]c2ccccc12)NC(=O)[C@@H](N)CCCCN)C(=O)N[C@@H](Cc1c[nH]c2ccccc12)C(=O)N[C@@H](Cc1c[nH]c2ccccc12)C(N)=O (H-KWWKKWKKWW-NH2) ? 134.38

Where do these numbers come from? They come from ChEMBL document CHEMBL4823282.
